Tested on: MDA-MB-468 breast
Experiment: NCI tumour cell line growth inhibition, 48 h; in the data active = GI50 below about 0.43 µM; inactive = the rest
Lab note: assign the record to one of active, inactive

{"columns": ["Compound", "Subject Of Test", "Answer Label"],
 "data": [
  ["CCN(CC)Cc1c(/C=C\\c2cc(OC)c(OC)c(OC)c2)ccc(OC)c1O", "MDA-MB-468 breast", "inactive"],
  ["COC(=O)CNC(=O)COc1c(OC)c(OC)cc2oc(-c3cccc(C(=O)Nc4ccc(Cl)cc4)c3)cc(=O)c12", "MDA-MB-468 breast", "inactive"],
  ["COc1ccc(N2CCN(C3=C(Cl)C(=O)c4ncccc4C3=O)CC2)cc1", "MDA-MB-468 breast", "inactive"],
  ["Cn1cc(C2=C(c3cn(C)c4ccccc34)C(=O)NC2=O)c2ccccc21", "MDA-MB-468 breast", "inactive"],
  ["CCN(CC)C1CCC(Nc2c(C(C)=O)cnc3ccc(-c4ccc(O)c(Cl)c4)cc23)CC1 (configuration not stated)", "MDA-MB-468 breast", "inactive"],
  ["COc1cc(C(=O)Nc2cc(OC)c3ccn(C)c3c2)cc2c1C[C@]1(C)CC[C@@H](O)C(C)(C)[C@H]1O2", "MDA-MB-468 breast", "inactive"]
]}

Request: Dear colleague, could you share the recorded outcome for COc1ccc(/C=C/C(=O)c2ccc(OC)c(OC)c2)cc1O when you have a moment?
Result: inactive

Request: Next compound: O=C(Nc1n[nH]c2nnc(-c3cccnc3)cc12)C1CC1
Result: inactive

Request: Next compound: COc1cc(/C=C/C(=O)N2CCN(C(=O)c3cc(OC)c(OC)c(OC)c3)CC2)ccc1OCCCOc1cc2c(cc1OC)C(=O)N1CCC[C@H]1C=N2
Result: active

Request: Next compound: COc1cc(C(=O)N/N=C/c2ccc(N(C)C)cc2)cc(OC)c1OC
Result: active

Request: Next compound: Nc1nn2c(-c3cc4cc(Br)ccc4oc3=O)ccnc2c1N=Nc1ccc(Br)cc1
Result: inactive

Request: Next compound: CN1CCN(C(=O)Oc2cc3c(c4ccccc24)[C@H](CCl)CN3C(=O)c2cc3cc(OCCCN4CCC4)ccc3[nH]2)[C@H]2CSSC[C@H]21
Result: active

Sourced from PubChem BioAssay (NCI)
